# TGT: PI3Kg (p110γ) (Homo sapiens (Human))
# PROCEDURE DETAILS: Lipid kinase selectivity panel (Reaction Biology)
# Type: biochemical
# CONDITION DESCRIPTION: 1 μM compound, single dose duplicates, 10 μM ATP; read-out: Percent inhibition relative to DMSO control, PI3Kg (p110γ)
MEASURED QUANTITY: inhibition at 1 µM (%)

- CNC(=O)Nc1cc(-c2cc(N3CCCC[C@@H]3C(F)(F)F)[nH]c(=O)c2)c(C)cn1: -16
- Cc1cnc(NC(=O)C2CC2)cc1-c1cc(N2CCCC[C@@H]2C(F)(F)F)[nH]c(=O)c1: 7
- COC(=O)Nc1cc(-c2cc(-c3cccnc3C(F)(F)F)[nH]c(=O)c2)c(N)cn1: 16
- COC(=O)Nc1cc(-c2cc(-c3cccnc3C(F)(F)F)[nH]c(=O)c2)c(F)cn1: 23
- COC(=O)Nc1cc(-c2cc(N3CCCC[C@@H]3C(F)(F)F)[nH]c(=O)c2)c(CF)cn1: -13
- COC(=O)Nc1cc(-c2cc(N3CCCC[C@@H]3C(F)(F)F)[nH]c(=O)c2)c(C)cn1: 12
- Cc1cnc(NC(=O)CC2CNCC2(F)F)cc1-c1cc(N2CCCC[C@@H]2C(F)(F)F)[nH]c(=O)c1 (some centres unmarked): -8
- COC(=O)Nc1ncc(C)c(-c2cc(-c3cccnc3C(F)(F)F)[nH]c(=O)c2)n1: 5
- COC(=O)Nc1cc(-c2cc(N3CCCC[C@@H]3C(F)(F)F)[nH]c(=O)c2)c(N)cn1: 11
- Cc1cnc(NC(=O)CC2CNC2)cc1-c1cc(N2CCCC[C@@H]2C(F)(F)F)[nH]c(=O)c1: -8
- Cc1nccc(Nc2cc(-c3cc(N4CCCC[C@@H]4C(F)(F)F)[nH]c(=O)c3)c(C)cn2)n1: 65

###

# TGT: PI3K (p110α/p65α) (Homo sapiens (Human), UniProt P42336)
# PROCEDURE DETAILS: Lipid kinase selectivity panel (Reaction Biology)
# Type: biochemical
# CONDITION DESCRIPTION: 1 μM compound, single dose duplicates, 10 μM ATP; read-out: Percent inhibition relative to DMSO control, PI3K (p110α/p65α)
MEASURED QUANTITY: inhibition at 1 µM (%)

- Cc1cnc(NC(=O)CC2CNCC2(F)F)cc1-c1cc(N2CCCC[C@@H]2C(F)(F)F)[nH]c(=O)c1 (some centres unmarked): -4
- COC(=O)Nc1cc(-c2cc(-c3cccnc3C(F)(F)F)[nH]c(=O)c2)c(C)cn1: 15
- COC(=O)Nc1cc(-c2cc(N3CCCC[C@@H]3C(F)(F)F)[nH]c(=O)c2)c(N)cn1: -7
- COC(=O)Nc1cc(-c2cc(N3CCCC[C@@H]3C(F)(F)F)[nH]c(=O)c2)c(CF)cn1: -2
- Cc1cnc(NC(=O)CCN(C)C)cc1-c1cc(N2CCCC[C@@H]2C(F)(F)F)[nH]c(=O)c1: 0
- COC(=O)Nc1cc(-c2cc(N3CCCC[C@@H]3C)[nH]c(=O)c2)c(C)cn1: -11
- Cc1cnc(NC(=O)C2CC2)cc1-c1cc(N2CCCC[C@@H]2C(F)(F)F)[nH]c(=O)c1: -17
- COC(=O)Nc1cc(-c2cc(-c3cccnc3C(F)(F)F)[nH]c(=O)c2)c(F)cn1: 15

###

# reported inhibition at 1 µM; entries follow
# TGT: PI3Kg (p110γ) (Homo sapiens (Human), UniProt P48736)
# Sequence (P48736 whole entry, species assumed): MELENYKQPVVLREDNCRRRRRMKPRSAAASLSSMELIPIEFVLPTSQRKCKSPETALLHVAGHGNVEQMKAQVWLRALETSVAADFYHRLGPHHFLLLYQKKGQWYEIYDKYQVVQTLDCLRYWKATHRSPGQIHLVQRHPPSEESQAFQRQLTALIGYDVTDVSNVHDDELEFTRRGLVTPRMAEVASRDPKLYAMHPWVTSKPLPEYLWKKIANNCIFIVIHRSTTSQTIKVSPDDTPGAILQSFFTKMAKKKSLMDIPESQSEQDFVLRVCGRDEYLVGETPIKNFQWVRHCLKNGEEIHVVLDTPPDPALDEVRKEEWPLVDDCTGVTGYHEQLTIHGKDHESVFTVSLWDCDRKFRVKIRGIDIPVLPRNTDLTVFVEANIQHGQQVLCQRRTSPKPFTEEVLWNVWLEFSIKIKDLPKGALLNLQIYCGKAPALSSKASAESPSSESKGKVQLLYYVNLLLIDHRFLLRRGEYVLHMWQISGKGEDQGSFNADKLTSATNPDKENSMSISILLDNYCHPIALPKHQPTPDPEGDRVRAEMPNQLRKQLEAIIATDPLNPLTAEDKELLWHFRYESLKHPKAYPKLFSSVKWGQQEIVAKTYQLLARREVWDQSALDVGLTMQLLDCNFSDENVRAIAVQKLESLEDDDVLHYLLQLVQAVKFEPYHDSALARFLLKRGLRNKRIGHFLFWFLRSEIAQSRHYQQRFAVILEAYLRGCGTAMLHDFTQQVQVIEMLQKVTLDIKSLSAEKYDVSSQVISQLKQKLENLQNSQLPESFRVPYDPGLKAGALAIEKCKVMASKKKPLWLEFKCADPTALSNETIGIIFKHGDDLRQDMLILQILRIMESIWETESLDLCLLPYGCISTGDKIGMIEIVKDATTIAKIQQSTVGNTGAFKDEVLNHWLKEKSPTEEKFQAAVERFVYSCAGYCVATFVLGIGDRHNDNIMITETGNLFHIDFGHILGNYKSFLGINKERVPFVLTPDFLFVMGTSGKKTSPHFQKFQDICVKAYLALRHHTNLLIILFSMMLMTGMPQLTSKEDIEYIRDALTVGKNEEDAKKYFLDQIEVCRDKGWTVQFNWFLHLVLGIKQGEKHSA
# PROCEDURE DETAILS: Lipid kinase selectivity panel (Reaction Biology)
# Assay type: biochemical
# CONDITION DESCRIPTION: 1 μM compound, single dose duplicates, 10 μM ATP; read-out: Percent inhibition relative to DMSO control, PI3Kg (p110γ)
MEASURED QUANTITY: inhibition at 1 µM (%)

- O=C(Nc1cc(-c2cc(N3CCCC[C@@H]3C(F)(F)F)[nH]c(=O)c2)c(Cl)cn1)C1CC1 [Example 16]: 29
- Cc1nccc(Nc2cc(-c3cc(-c4cccnc4C(F)(F)F)[nH]c(=O)c3)c(C)cn2)n1 [Example 38]: 66
- CNCC(=O)Nc1cc(-c2cc(N3CCCC[C@@H]3C(F)(F)F)[nH]c(=O)c2)c(C)cn1 [Example 24]: -7
- Cc1cnc(NC(=O)OC2CC3(CNC3)C2)cc1-c1cc(N2CCCC[C@@H]2C(F)(F)F)[nH]c(=O)c1 [Example 28]: -10
- COC(=O)Nc1cc(-c2cc(N3CCCC[C@@H]3C)[nH]c(=O)c2)c(C)cn1 [Example 20]: -10
- COC(=O)Nc1cc(-c2cc(-c3cccnc3C(F)(F)F)[nH]c(=O)c2)c(C)cn1 [Example 78]: 30
- Cc1cnc(NC(=O)CCN(C)C)cc1-c1cc(N2CCCC[C@@H]2C(F)(F)F)[nH]c(=O)c1 [Example 25]: -4
- Cc1cnc(NC(=O)CCN2CCCC2)cc1-c1cc(N2CCCC[C@@H]2C(F)(F)F)[nH]c(=O)c1 [Example 26]: -5

###

# TGT: PI3Kb (p110β/p85α) (Homo sapiens (Human), UniProt P42338)
# Sequence (P42338 whole entry, species assumed): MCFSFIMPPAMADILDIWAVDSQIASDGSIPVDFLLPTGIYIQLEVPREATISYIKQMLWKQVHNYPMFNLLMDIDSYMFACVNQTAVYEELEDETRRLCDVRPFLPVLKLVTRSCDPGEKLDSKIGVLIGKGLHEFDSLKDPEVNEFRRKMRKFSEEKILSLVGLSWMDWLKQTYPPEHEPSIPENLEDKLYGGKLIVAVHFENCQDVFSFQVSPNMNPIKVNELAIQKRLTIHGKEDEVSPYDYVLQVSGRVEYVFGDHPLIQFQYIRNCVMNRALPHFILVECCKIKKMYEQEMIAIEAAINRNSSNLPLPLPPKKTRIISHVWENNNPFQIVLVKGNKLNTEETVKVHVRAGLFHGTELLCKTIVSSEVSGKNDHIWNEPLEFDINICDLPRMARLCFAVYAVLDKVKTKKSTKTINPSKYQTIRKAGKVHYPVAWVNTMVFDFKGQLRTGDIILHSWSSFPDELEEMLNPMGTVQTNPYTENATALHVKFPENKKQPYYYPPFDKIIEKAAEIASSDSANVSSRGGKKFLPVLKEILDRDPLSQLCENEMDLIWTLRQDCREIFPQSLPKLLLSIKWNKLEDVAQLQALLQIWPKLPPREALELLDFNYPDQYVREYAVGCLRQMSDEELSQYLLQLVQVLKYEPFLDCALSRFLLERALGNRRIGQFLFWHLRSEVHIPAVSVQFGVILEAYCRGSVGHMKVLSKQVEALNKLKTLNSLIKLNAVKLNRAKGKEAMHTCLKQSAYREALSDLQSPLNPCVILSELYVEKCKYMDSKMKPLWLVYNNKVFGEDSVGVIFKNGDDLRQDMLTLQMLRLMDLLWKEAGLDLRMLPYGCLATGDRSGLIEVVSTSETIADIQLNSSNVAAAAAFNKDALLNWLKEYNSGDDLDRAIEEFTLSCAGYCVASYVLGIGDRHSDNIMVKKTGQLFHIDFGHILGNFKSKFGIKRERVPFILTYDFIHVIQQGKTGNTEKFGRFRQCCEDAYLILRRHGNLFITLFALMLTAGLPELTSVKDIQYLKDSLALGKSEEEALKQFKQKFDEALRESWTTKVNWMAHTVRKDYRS
# Sequence (P27986 whole entry partner, species assumed): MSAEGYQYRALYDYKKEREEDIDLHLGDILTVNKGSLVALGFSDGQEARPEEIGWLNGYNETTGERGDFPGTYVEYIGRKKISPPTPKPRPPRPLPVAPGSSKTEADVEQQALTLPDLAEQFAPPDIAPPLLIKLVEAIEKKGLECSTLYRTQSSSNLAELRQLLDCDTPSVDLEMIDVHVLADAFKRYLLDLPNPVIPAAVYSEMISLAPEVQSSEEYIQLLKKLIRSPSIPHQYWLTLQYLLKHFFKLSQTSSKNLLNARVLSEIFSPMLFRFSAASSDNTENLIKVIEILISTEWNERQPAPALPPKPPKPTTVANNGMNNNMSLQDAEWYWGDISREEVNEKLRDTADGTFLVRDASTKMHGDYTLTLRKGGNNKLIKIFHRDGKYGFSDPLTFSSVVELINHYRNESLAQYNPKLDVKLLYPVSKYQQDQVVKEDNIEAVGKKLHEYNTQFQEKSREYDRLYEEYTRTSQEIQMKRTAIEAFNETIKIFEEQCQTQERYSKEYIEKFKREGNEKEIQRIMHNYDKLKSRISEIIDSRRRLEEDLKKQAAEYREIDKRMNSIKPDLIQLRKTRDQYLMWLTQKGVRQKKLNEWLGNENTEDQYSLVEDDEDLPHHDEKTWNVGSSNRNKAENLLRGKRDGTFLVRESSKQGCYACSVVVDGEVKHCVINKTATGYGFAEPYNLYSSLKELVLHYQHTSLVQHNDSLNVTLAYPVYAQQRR
# PROCEDURE DETAILS: Lipid kinase selectivity panel (Reaction Biology)
# Format: biochemical
# CONDITION DESCRIPTION: 1 μM compound, single dose duplicates, 10 μM ATP; read-out: Percent inhibition relative to DMSO control, PI3Kb (p110β/p85α)
MEASURED QUANTITY: inhibition at 1 µM (%)

- CNC(=O)Nc1cc(-c2cc(N3CCCC[C@@H]3C(F)(F)F)[nH]c(=O)c2)c(C)cn1: -12
- COC(=O)Nc1cc(-c2cc(N3CCCC[C@@H]3C)[nH]c(=O)c2)c(C)cn1: -9
- Cc1cnc(NC(=O)CCN(C)C)cc1-c1cc(N2CCCC[C@@H]2C(F)(F)F)[nH]c(=O)c1: -7

###

# reported inhibition at 1 µM; entries follow
# TGT: PI3K (p110α (E545K)/p85α) (Homo sapiens (Human), UniProt P42336, E545K)
# Sequence (P42336 whole entry E545K): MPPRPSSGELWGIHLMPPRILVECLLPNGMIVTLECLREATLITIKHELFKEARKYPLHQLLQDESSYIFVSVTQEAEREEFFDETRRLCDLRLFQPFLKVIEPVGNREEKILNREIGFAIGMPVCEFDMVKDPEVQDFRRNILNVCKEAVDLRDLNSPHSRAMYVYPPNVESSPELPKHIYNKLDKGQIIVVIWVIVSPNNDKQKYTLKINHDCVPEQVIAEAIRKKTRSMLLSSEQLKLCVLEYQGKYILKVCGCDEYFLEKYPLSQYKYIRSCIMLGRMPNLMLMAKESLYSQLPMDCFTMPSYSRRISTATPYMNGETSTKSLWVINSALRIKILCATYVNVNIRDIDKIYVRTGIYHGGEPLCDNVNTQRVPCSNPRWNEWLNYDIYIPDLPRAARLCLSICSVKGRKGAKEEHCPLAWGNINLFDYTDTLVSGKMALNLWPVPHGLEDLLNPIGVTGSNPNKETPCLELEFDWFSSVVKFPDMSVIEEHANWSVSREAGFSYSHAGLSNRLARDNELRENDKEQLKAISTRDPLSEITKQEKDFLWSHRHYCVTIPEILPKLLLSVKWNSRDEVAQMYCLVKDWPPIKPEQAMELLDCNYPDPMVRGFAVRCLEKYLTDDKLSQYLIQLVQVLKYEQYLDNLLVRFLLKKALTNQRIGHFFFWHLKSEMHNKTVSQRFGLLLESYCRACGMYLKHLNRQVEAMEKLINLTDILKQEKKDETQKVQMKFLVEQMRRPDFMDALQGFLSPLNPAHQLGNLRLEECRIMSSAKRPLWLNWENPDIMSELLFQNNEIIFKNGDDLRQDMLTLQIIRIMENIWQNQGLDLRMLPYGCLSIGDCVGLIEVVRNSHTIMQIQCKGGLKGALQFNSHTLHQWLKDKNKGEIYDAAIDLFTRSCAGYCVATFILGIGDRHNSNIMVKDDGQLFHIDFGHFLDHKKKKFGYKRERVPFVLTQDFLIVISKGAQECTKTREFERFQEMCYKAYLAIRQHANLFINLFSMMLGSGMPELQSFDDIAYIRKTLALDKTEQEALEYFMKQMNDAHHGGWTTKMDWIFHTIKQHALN
# Sequence (P27986 whole entry partner): as the sequence (P27986 whole entry partner, species assumed) above
# PROCEDURE DETAILS: Lipid kinase selectivity panel (Reaction Biology)
# Format: biochemical
# CONDITION DESCRIPTION: 1 μM compound, single dose duplicates, 10 μM ATP; read-out: Percent inhibition relative to DMSO control, PI3K (p110α (E545K)/p85α)
MEASURED QUANTITY: inhibition at 1 µM (%)

* Cc1cnc(NC(=O)C2CC2)cc1-c1cc(N2CCCC[C@@H]2C(F)(F)F)[nH]c(=O)c1 [Example 17] | -5
* Cc1cnc(NC(=O)CC2CNC2)cc1-c1cc(N2CCCC[C@@H]2C(F)(F)F)[nH]c(=O)c1 [Example 27] | 1
* COC(=O)Nc1cc(-c2cc(-c3cccnc3C(F)(F)F)[nH]c(=O)c2)c(F)cn1 [Example 5] | 32
* COC(=O)Nc1cc(-c2cc(-c3cccnc3C(F)(F)F)[nH]c(=O)c2)c(N)cn1 [Example 15] | -2
* COC(=O)Nc1cc(-c2cc(-c3cccnc3C(F)(F)F)[nH]c(=O)c2)c(C)cn1 [Example 78] | 12
* O=C(Nc1cc(-c2cc(N3CCCC[C@@H]3C(F)(F)F)[nH]c(=O)c2)c(Cl)cn1)C1CC1 [Example 16] | -8
* Cc1cnc(NC(=O)CCN(C)C)cc1-c1cc(N2CCCC[C@@H]2C(F)(F)F)[nH]c(=O)c1 [Example 25] | -1
* Cc1cnc(NC(=O)OC2CC3(CNC3)C2)cc1-c1cc(N2CCCC[C@@H]2C(F)(F)F)[nH]c(=O)c1 [Example 28] | -5
* Cc1cnc(NC(=O)CCN2CCCC2)cc1-c1cc(N2CCCC[C@@H]2C(F)(F)F)[nH]c(=O)c1 [Example 26] | -1
* CNC(=O)Nc1cc(-c2cc(N3CCCC[C@@H]3C(F)(F)F)[nH]c(=O)c2)c(C)cn1 [Example 10] | 3
* Cc1cnc(NC(=O)CC2CNCC2(F)F)cc1-c1cc(N2CCCC[C@@H]2C(F)(F)F)[nH]c(=O)c1 (stereo partly shown) [Example 22] | -1
* COC(=O)Nc1ncc(C)c(-c2cc(-c3cccnc3C(F)(F)F)[nH]c(=O)c2)n1 [Example 6] | 3
* COC(=O)Nc1cc(-c2cc(N3CCCC[C@@H]3C(F)(F)F)[nH]c(=O)c2)c(CF)cn1 [Example 18] | 2
* COC(=O)Nc1cc(-c2cc(N3CCCC[C@@H]3C(F)(F)F)[nH]c(=O)c2)c(N)cn1 [Example 14] | 3
* Cc1nccc(Nc2cc(-c3cc(N4CCCC[C@@H]4C(F)(F)F)[nH]c(=O)c3)c(C)cn2)n1 [Example 77] | 28
* COC(=O)Nc1cc(-c2cc(N3CCCC[C@@H]3C(F)(F)F)[nH]c(=O)c2)c(C)cn1 [Example 1] | 15
